Molecular target: Fatty-acid amide hydrolase 1 (Homo sapiens, UniProt O00519)
Sequence (O00519 whole entry): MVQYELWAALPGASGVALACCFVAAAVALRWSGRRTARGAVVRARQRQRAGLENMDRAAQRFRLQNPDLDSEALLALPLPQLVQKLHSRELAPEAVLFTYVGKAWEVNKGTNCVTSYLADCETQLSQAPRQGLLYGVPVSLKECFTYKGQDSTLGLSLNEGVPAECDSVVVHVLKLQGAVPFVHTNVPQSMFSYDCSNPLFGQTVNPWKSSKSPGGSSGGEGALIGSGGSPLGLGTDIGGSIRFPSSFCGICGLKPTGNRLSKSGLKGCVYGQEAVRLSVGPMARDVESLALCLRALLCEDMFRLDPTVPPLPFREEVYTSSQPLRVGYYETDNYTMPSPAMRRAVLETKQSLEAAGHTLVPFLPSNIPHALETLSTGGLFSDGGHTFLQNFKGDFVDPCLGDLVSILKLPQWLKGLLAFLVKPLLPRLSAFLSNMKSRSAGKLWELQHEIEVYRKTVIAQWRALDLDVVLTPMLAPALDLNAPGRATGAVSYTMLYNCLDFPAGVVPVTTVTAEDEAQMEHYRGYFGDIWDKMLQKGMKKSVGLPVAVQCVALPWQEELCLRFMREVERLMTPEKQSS
Assay: Inhibition of human FAAH expressed in human H4 cells
pIC50: −log10 of the molar value.
Heads up, the class ranges for pIC50 are bottom = under 8, middle = from 8 up to 9, top = 9 and over

### Prompt Which pIC50 band matches `CCCCCOc1ccc(NC(=O)O/N=C/c2ccccc2)cc1` ?
### Response middle

### Prompt Which pIC50 band matches `CCCCCCCCOc1ccc(NC(=O)Oc2ccccc2)cc1` ?
### Response middle

### Prompt Which pIC50 band matches `CCCCCCCCCCCCOc1ccc(NC(=O)ON=C(C)C)cc1` ?
### Response middle

### Prompt Which pIC50 band matches `CCCCCCCCCOc1ccc(NC(=O)O/N=C/c2ccc(F)cc2)cc1` ?
### Response top

### Prompt Which pIC50 band matches `CCCCOc1cccc(NC(=O)ON=C(C)C)c1` ?
### Response bottom

### Prompt Which pIC50 band matches `O=C(Nc1ccc(Oc2ccccc2)cc1)Oc1ccccc1F` ?
### Response bottom

### Prompt Which pIC50 band matches `CCCCCCCCOc1ccc(NC(=O)O/N=C/c2ccc(F)cc2)cc1` ?
### Response top

### Prompt Which pIC50 band matches `CCCCCCCCCCCCOc1ccc(NC(=O)O/N=C/c2ccc(F)cc2)cc1` ?
### Response middle

### Prompt Which pIC50 band matches `CCCCCCCOc1ccc(NC(=O)O/N=C/c2cccnc2)cc1` ?
### Response middle

---

Molecular target: Fatty-acid amide hydrolase 1 (Homo sapiens, UniProt O00519)
Assay: Inhibition of human FAAH expressed in human H4 cells
I'd be grateful if you could share measured pIC50 for these entries.
# reply with the number alone; pIC50 is -log10 of concentration in mol/L

### Prompt Which measured pIC50 value corresponds to `CCCCCCOc1ccc(NC(=O)O/N=C/c2cccnc2)cc1` ?
### Response 8.08

### Prompt Which measured pIC50 value corresponds to `CCCCOc1ccc(NC(=O)O/N=C/c2cccnc2)cc1` ?
### Response 7.85

### Prompt Which measured pIC50 value corresponds to `CCCCCCCOc1ccc(NC(=O)O/N=C/c2ccccc2)cc1` ?
### Response 8.07

### Prompt Which measured pIC50 value corresponds to `CCCCOc1ccc(CNC(=O)Oc2ccccc2F)cc1` ?
### Response 8.04

### Prompt Which measured pIC50 value corresponds to `CCCCCOc1ccc(NC(=O)O/N=C/c2cccnc2)cc1` ?
### Response 8.21

---

Target: Fatty-acid amide hydrolase 1 (Homo sapiens, UniProt O00519)
Test: Inhibition of human FAAH expressed in human H4 cells
Format: cell-based
Experimental readout: pIC50
# reply with the number alone; pIC50 is -log10 of concentration in mol/L

### Prompt Which measured pIC50 value corresponds to `CCCCCCCCCOc1ccc(NC(=O)O/N=C/c2cccnc2)cc1` ?
### Response 9.19

### Prompt Which measured pIC50 value corresponds to `Cc1nc(-c2ccccc2)c(-c2ccccc2)n1CCCCCCNC(=O)Oc1ccccc1F` ?
### Response 8.77

### Prompt Which measured pIC50 value corresponds to `CCCCOc1ccc(CNC(=O)Oc2ccc(F)cc2F)cc1` ?
### Response 8.06

### Prompt Which measured pIC50 value corresponds to `CCCCOc1ccc(NC(=O)O/N=C/c2ccccc2)cc1` ?
### Response 8.07

### Prompt Which measured pIC50 value corresponds to `CCCOc1ccc(NC(=O)O/N=C/c2ccc(F)cc2)cc1` ?
### Response 7.89

### Prompt Which measured pIC50 value corresponds to CCCCOc1ccc(C(CC)NC(=O)Oc2ccccc2)cc1 (stereo unspecified) ?
### Response 7.92
